Listing of recorded inhibition at 10 µg/mL by entry.
System: Spleen cells from BALB/C mice
experiment notes: Inhibition of LPS-induced B-lymphocyte blast genesis (3H-thymidine uptake)
Type: cell-based
conditions: Mus musculus; 10 µg/ml compound; 100 µg/ml of LPS from E. coli

[
  {
    "compound": "N=C(N)Nc1ccc(CCCC(=O)NCC(=O)NCCCCNCCCN)cc1 [(6)]",
    "inhibition at 10 µg/mL [%]": 96
  },
  {
    "compound": "N=C(N)NCCCCC=CC(=O)NC(O)C(=O)NCCCCNCCCN (centres unmarked) [(11)]",
    "inhibition at 10 µg/mL [%]": 98
  },
  {
    "compound": "N=C(N)NCCCCCCC(=O)NCC(=O)NCCCCNCCCN [(4)]",
    "inhibition at 10 µg/mL [%]": 100
  },
  {
    "compound": "N=C(N)NCCCCCCC(=O)NC(O)C(=O)NCCCCNCCCN (centres unmarked) [(1)]",
    "inhibition at 10 µg/mL [%]": 98
  },
  {
    "compound": "N=C(N)NCCCCCCC(=O)N[C@@H](CO)C(=O)NCCCCNCCCN [(5)]",
    "inhibition at 10 µg/mL [%]": 88
  }
]
